Parameter: Percent Effect. Scope: all listed entries.
# ASSAYED_SYSTEM: Arginase-2, mitochondrial (Homo sapiens)
# ASSAY_REMARKS: in vitro enzyme assay to detect the production of urea directly proportional to the activity of Arginase II
# Format: functional
# Set-up: scale not given: in the data most compounds retested in dose-response had high values
# COND: 33.3 µM

COMPOUND	Percent Effect / %
COCCNC(=O)[C@H]1CN(c2nnc(C)s2)C[C@H]2OCC[C@@H]12	-0.233
O=C(c1cnc(COc2ccccc2)nc1O)N1CCOCC1	-0.442
CC(C)n1[nH]c(=O)c2c1NC(=O)CC2c1cccnc1 (stereo unspecified)	1.75
CCn1cnnc1CNC(=O)N1CCC(C(=O)NC)CC1	-2.66
CC(=O)c1cccc(NC(=O)CN2CCCCC2C2OCCO2)c1 (stereo unspecified)	5
CN1CCC(NC(=O)NCCNc2ccccn2)CC1	3.14
Cc1cccc(N2CC[C@@H]3CN(Cc4csc(C)n4)CCO[C@@H]3C2)n1	-6.88
Cc1nc(CN2CCCC2c2ccsc2)nc2ccccc12 (stereo unspecified)	7.1
Cn1cc(CN2C[C@@H]3CN(Cc4ccoc4)CCO[C@@H]3C2)cn1	7.1
Cc1nn(C)c(C)c1NC(=O)CCn1ncc2c(C)cccc21	9.65
Cc1csc2c(=O)n3c(nc12)CCN(C(=O)c1cccnc1)CC3	-1.16
